# maps each entry to its CC50 at 48 h
Test: Cytotoxicity against human A549 cells assessed as reduction in cell viability after 48 hrs by MTT assay
Type: cell-based
# number only, unit µM dropped from output

> print(dat)
                               smiles.entry  recorded.result
1  c1ccc(-c2ccc(Nc3ccnc(NCCN4CCOCC4)n3)cc2)cc1               59
2  Clc1ccc(-c2ccc(Nc3ccnc(NCc4cccnc4)n3)cc2)cc1             25.7
3  CN1CCN(c2nccc(Nc3ccc(-c4ccc(Cl)cc4)cc3)n2)CC1             23.5

Consider now this further molecule.
CC50 at 48 h reading for `Clc1ccc(Nc2ccnc(NCCN3CCOCC3)n2)cc1` : 89.6
